Test system: COG-LL-394h;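 further: ALL cell lines in 384-well plates, five doses spanning 10,000-fold, each plate scaled between vehicle and 100 µmol/L benzalkonium chloride controls, sDSS an adapted area-under-curve metric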
Measurement Description: selective drug sensitivity score (sDSS, relative to normal bone marrow) (sDSS (score)); higher = more potent and effective on the cell line relative to normal bone marrow cells
Applied Conditions: 72 h
Entries and their selective drug sensitivity score

| Compound | selective drug sensitivity score |
| --- | --- |
| Cn1ncc(Cl)c1-c1cc(C(=O)N[C@H](CN)Cc2cccc(F)c2)sc1Cl [Afuresertib] (top concentration 1000 nM) | -0.94 |
| C[C@]12CC[C@@H]3c4ccc(O)cc4C[C@@H](CCCCCCCCC[S+]([O-])CCCC(F)(F)C(F)(F)F)[C@H]3[C@@H]1CC[C@@H]2O (some centres undefined) [Fulvestrant] (top concentration 1000 nM) | 0 |
| CN(C)C[C@@H]1CCn2cc(c3ccccc32)C2=C(C(=O)NC2=O)c2cn(c3ccccc23)CCO1 [Ruboxistaurin] (top concentration 10000 nM) | 0.76 |
| C[C@@H]1C[C@H]2[C@@H]3CCC4=CC(=O)C=C[C@]4(C)[C@@]3(F)[C@@H](O)C[C@]2(C)[C@@]1(O)C(=O)CO [Dexamethasone] (top concentration 10000 nM) | -1.52 |
| CCc1cc2c(cc1N1CCC(N3CCOCC3)CC1)C(C)(C)c1[nH]c3cc(C#N)ccc3c1C2=O [Alectinib] (top concentration 1000 nM) | 2.58 |
| CN(C)CCOc1ccc(/C(=C(/CCCl)c2ccccc2)c2ccccc2)cc1 [Toremifene] (top concentration 10000 nM) | 0.58 |
| C/C(=C\c1csc(C)n1)[C@@H]1C[C@@H]2O[C@]2(C)CCC[C@H](C)[C@H](O)[C@@H](C)C(=O)C(C)(C)[C@@H](O)CC(=O)N1 [Ixabepilone] (top concentration 1000 nM) | 2.18 |
| COc1cccc2c1C(=O)c1c(O)c3c(c(O)c1C2=O)C[C@@](O)(C(C)=O)C[C@@H]3O[C@H]1C[C@H](N)[C@H](O)[C@H](C)O1 [Daunorubicin] (top concentration 1000 nM) | 8.66 |
| COC(=O)c1ccc([C@H]2c3[nH]c4ccccc4c3C[C@H](C(=O)OC)N2C(=O)CCl)cc1 [RSL3] (top concentration 10000 nM) | 0 |
| Cc1ncc(-c2ccnc(Nc3ccc(S(C)(=O)=O)cc3)n2)n1C(C)C [AZD-5438] (top concentration 10000 nM) | -5.86 |
| Oc1ncnc2[nH]ncc12 [Allopurinol] (top concentration 10000 nM) | -0.64 |
| CCN1C(=O)CNc2ncc(-c3ccc(-c4nc[nH]n4)nc3C)nc21 [CC-115] (top concentration 10000 nM) | -2.06 |
| CC(C)(O)CC(=O)NCCn1ccc2ncnc(Nc3ccc(Oc4cccc(C(F)(F)F)c4)c(Cl)c3)c21 [TAK-285] (top concentration 2500 nM) | 0 |
| C/C=C1\NC(=O)[C@H]2CSSCC/C=C/[C@H](CC(=O)N[C@H](C(C)C)C(=O)N2)OC(=O)[C@H](C(C)C)NC1=O [Romidepsin] (top concentration 1000 nM) | -0.94 |
